Please respond with reported Percent Effect for every item in the list.
MEASURED_TARGET: Shiga toxin 2 (Escherichia coli O157:H7) (UniProt P09385+P09386)
PROTOCOL_DETAILS: E. coli 0.157:H7 Shiga Toxin SOP - stx2 screening assay
Type: functional
Parameters: scale not given: direction of the effect not stated beside the values
PARTICULARS: 30 µM
# include the unit after the value

Any idea what its Percent Effect is? The compound is "Cc1nc(C)c(CC(=O)Nc2ncc(C)s2)c(=O)[nH]1"
30.1%

Likewise for Cc1ccsc1C(=O)N1CC(C(=O)NCC2CC2)C2(CCOCC2)C1 (stereo not given) ?
-7.68%

What do you have for "CC(C)c1ncc2c(n1)CN(Cc1nc(-c3cccs3)no1)CC2" ?
13.1%

Record: CCc1nc(CC(=O)NCC(Cc2ccc(F)cc2)C(N)=O)cs1 (stereo not given)
3.77%

Next up: "CCOC(=O)CCCNC(=O)CN1CCN(c2ncccn2)CC1"
-56.7%

* * *

MEASURED_TARGET: Aspartate--tRNA(Asp/Asn) ligase (Mycobacterium tuberculosis (strain ATCC 25618 / H37Rv)) (UniProt P9WFW3); note: in the data most compounds retested in dose-response had high values
Sequence (whole entry): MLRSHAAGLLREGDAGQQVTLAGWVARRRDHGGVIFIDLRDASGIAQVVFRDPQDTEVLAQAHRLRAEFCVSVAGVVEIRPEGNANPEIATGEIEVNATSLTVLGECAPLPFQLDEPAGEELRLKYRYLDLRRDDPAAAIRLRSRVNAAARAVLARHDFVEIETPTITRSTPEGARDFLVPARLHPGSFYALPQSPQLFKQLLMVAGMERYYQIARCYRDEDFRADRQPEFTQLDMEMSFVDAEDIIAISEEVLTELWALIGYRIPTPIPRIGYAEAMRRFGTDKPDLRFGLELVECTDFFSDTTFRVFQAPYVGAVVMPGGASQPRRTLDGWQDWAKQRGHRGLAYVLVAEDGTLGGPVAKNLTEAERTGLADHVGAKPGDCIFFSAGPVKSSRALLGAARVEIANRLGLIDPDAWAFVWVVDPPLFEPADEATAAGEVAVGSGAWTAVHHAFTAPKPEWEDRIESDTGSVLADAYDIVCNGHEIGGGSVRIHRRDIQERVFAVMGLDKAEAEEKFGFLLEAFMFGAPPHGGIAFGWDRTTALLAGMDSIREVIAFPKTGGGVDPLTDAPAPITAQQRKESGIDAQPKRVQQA
PROTOCOL_DETAILS: Assay for Asp RNA synthetase-1 from Mycobacterium tuberculosis
Format: functional
Set-up: scale not given: direction of the effect not stated beside the values
PARTICULARS: 30 µM
Exercise: state measured Percent Effect for each of the compounds provided.
Kindly answer with a numeric value in %, unit omitted.

Need Percent Effect, item "COC[C@@H]1CCC[C@]12CN(Cc1cccc(C)n1)CCO2"
3.92

How about this compound: "O=C(c1ccc2c(c1)COC2)N1CCC(Nc2ccccc2)CC1"
-0.152

Note, next up: "CCn1c(CN2CCCN(C(=O)OC)CC2)nc2c(F)cccc21"
-0.656

Next record, please: CCc1nc(C2CCCN2C(=O)c2c[nH]c(C)n2)no1 (stereo not given)
-7.28

Also, CNC(=O)C1(c2cnccn2)CCCN1C(=O)c1ccn(C)n1 (stereo not given) please.
-7.79

* * *

MEASURED_TARGET: Shiga toxin 2 (Escherichia coli O157:H7) (UniProt P09385+P09386)
PROTOCOL_DETAILS: E. coli 0.157:H7 Shiga Toxin SOP - stx2 screening assay
Format: functional
Parameters: scale not given: direction of the effect not stated beside the values
PARTICULARS: 30 µM
MEASURE_NAME: Percent Effect (%)
The response must be a number in % with no trailing unit.

Given the entry COc1ccc(C(C(=O)O)N2CCCN(C3CCCCC3)CC2)cn1 (stereo not given) , what Percent Effect was observed with Shiga toxin 2 (Escherichia coli O157:H7) (UniProt P09385+P09386)?
0.0125

# iterate: CN(Cc1cn2c(n1)CN(C1CCOC1)CC2)Cc1ccco1 (stereo not given)
-24.2

Also check "CCC(=O)Nc1ccc2c(c1)CN(C(=O)c1ccco1)CC2"
-43.9

Same question for O=C(CCC1CCCO1)NS(=O)(=O)c1ccc(Cl)cc1 (stereo not given) please.
21.6

Ok, now "CC(C)NC(=O)Nc1ccc(CNCc2cccc(C#N)c2)cc1"
-108
